ASSAY_SYSTEM: Glucose-6-phosphate 1-dehydrogenase (Homo sapiens, UniProt P11413)
Sequence (P11413 whole entry): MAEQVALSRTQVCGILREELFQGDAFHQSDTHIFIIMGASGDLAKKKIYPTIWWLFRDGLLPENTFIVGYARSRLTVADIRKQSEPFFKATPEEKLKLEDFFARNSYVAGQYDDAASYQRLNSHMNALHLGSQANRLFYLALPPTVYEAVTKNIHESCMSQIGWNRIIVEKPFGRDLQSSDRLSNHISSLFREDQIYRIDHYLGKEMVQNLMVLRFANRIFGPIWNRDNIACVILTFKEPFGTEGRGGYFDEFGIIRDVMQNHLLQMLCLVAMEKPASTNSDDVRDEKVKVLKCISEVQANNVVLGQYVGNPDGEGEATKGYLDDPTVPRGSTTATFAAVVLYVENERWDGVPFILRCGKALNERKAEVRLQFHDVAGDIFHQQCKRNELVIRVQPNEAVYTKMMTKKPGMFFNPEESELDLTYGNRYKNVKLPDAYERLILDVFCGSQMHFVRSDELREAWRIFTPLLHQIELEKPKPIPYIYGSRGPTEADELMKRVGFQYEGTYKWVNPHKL
PROTOCOL_SUMMARY: inhibition of Homo sapiens G6PD, dose series – biochemical, fluorescence, selectivity assay for P. falciparum G6PD inhibitor project, dose response (AID 504792)
Type: functional
Active and inactive are the calls of the source.
Respond with a class label; see Yes (active), No (inactive)

Dear colleague, could you share the recorded outcome for `COc1cccc(-c2c(C(=O)N/N=C/c3ccc(C)s3)nnn2-c2nonc2N)c1` when you have a moment?
No

Check the results log: what was the call for `O=C(Nc1sc2c(c1C(=O)O)CCC2)c1ccc(F)cc1` ?
No

Recorded call for `N#Cc1ccc2c(=O)n(-c3ccccc3)sc2c1` ?
Yes

Record request — test call for `C[C@]12CC[C@@H]3c4ccc(O)c(O)c4CC[C@H]3[C@@H]1CC[C@@H]2O`
No

Field: outcome | Entry: `CN1CCN(C(=S)c2ccc([N+](=O)[O-])cc2)CC1`
No

---

PROTOCOL_SUMMARY: intracellular Trypanosoma cruzi inhibitors in host cells – cell-based, plate reader, cherry-pick samples, set 3, dose response (AID 651818);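 note: compounds incubated with infected cells for about four days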
Type: functional
Active and inactive are the calls of the source.
Provide the recorded AC50 for the entries that follow.

Indicate the recorded AC50 value for this molecule: `C[C@H](CO)N1C[C@H](C)[C@H](CN(C)Cc2ccc(C(=O)Nc3ccccc3N)cc2)Oc2ccc(NC(=O)Cc3ccccc3)cc2CC1=O`
2.95 µM (active)

In one line, give reported AC50 of the entry `C[C@@H]1CN([C@@H](C)CO)C(=O)c2cccc(NC(=O)CCCCCC(=O)Nc3ccccc3N)c2O[C@H]1CN(C)Cc1ccc2c(c1)OCO2` .
2.58 µM (active)

Indicate its recorded AC50; the molecule in question is `Cc1ccc(S(=O)(=O)Nc2cccc3c2O[C@@H](CN(C)S(=O)(=O)c2ccc(Cl)cc2)[C@@H](C)CN([C@H](C)CO)C3=O)cc1`
8.14 µM (active)

Report AC50 for `C[C@@H]1CN([C@@H](C)CO)C(=O)c2cccc(NC(=O)Nc3ccc(C(F)(F)F)cc3)c2O[C@@H]1CN(C)S(=O)(=O)c1ccc(F)cc1`
4.16 µM (active)

---

REPORTED_PROPERTY: AC50

Fill: AC50 (Cytochrome P450 1A2 (Homo sapiens)) for this compound `O=C(O)CCCCCNC(=O)c1ccncc1`
0.01 µM (inconclusive)

Give AC50; test system Cytochrome P450 1A2 (Homo sapiens); compound `CCc1cc2c(O)ncnc2s1`;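 note: PubChem cytochrome P450 panel assay, CYP1A2 panel member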
20 µM (inconclusive)

Provide measured AC50 on Cytochrome P450 1A2 (Homo sapiens) for `O=C(O)[C@@H]1CCN(Cc2oc(CO)cc(=O)c2O)C1` please.
Sequence (P05177 whole entry): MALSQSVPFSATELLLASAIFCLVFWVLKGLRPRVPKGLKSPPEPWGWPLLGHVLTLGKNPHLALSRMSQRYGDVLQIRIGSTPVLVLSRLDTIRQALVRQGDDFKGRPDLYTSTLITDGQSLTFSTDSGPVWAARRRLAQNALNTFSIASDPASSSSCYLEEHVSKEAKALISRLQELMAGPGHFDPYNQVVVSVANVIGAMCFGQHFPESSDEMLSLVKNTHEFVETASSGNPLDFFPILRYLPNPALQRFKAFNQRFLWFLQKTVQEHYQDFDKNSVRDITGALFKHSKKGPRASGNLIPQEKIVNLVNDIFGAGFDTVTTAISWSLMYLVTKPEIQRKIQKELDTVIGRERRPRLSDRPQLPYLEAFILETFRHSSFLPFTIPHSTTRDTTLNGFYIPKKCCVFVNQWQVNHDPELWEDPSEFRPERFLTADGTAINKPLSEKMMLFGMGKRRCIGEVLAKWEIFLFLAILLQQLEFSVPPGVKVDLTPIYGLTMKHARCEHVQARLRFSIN
10 µM (inconclusive)

---

ASSAY_SYSTEM: Protein RecA (Mycobacterium tuberculosis, UniProt P9WHJ3)
Sequence (P9WHJ3 whole entry): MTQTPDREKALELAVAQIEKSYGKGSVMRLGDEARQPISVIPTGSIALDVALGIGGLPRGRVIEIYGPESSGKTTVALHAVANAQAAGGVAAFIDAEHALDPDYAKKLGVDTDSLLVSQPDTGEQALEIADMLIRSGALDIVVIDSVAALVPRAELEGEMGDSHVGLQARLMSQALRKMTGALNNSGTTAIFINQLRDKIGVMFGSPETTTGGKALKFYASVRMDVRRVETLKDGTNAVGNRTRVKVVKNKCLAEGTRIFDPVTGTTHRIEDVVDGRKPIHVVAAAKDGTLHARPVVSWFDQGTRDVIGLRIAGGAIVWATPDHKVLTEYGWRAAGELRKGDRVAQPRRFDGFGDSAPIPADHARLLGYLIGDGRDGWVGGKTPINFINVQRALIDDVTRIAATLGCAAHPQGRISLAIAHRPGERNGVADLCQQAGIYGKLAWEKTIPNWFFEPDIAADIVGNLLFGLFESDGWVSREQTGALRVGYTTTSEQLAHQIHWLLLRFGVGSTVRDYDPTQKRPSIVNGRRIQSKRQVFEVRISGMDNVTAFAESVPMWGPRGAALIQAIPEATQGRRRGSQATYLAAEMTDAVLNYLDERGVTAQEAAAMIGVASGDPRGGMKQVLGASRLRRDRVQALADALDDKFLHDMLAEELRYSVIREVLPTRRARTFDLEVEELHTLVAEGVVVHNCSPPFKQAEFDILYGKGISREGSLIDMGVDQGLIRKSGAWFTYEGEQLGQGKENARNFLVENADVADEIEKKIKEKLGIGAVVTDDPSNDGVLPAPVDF
PROTOCOL_SUMMARY: Fluorescence Cell-Free Homogeneous Dose Retest to Identify Inhibitors of RecA-Intein Splicing Activity. [Related pubchem assays (depositor defined):AID2097, AID2223, AID489010, AID492950]
Assay type: functional
Active and inactive are the calls of the source.
Please state which outcome applies, choosing from active, inactive

Per the assay record, what outcome was assigned to `Fc1ccc(Oc2nc(-c3ccccc3)nnc2C(F)(F)F)cc1` ?
active

How did this test come out for `COC(=O)/C(=C1/Oc2cc(C)oc(=O)c2S1)C(F)(F)F` ?
active

State the result this test recorded for `O=C1c2ccccc2C(=O)c2c1oc(C(F)(F)F)c2C(=O)c1ccccc1` .
active

Which result was noted for this molecule in the test: `CCSc1c([N+](=O)[O-])c(=O)n(-c2ccccc2)c2ccccc12`
active

Entry `COc1cc(/C=N/NC(=O)c2ccc(F)cc2)ccc1OC(=O)c1ccco1` : call = ?
active

// return assay outcome for `O=C1C(Cl)=C(N2CCCCCC2)C(=O)N1c1ccccc1`
active

// param item: `O=C(O)c1cccc(Cn2c(Cl)c(/C=N/Nc3ccccc3)sc2=O)c1` ; yields the recorded call
inactive

Returns: the outcome recorded for O=C(c1cccs1)[C@@H]1[C@@H]2C(=O)N(Cc3ccc4c(c3)OCO4)C(=O)[C@@H]2C2c3ccccc3C=CN21 (stereo partly specified) in this assay.
active

Just curious, what result did `N#C[C@H]1[C@H](c2ccccc2)[C@](C#N)(C(=O)c2ccccc2)[C@@H]2C=Cc3ccccc3N21` get here?
active

What is the recorded call for this molecule in the test? `CCOc1cc(/C=C2\C(=O)N(CCC#N)N=C2C)ccc1OCC(N)=O`
active

For `Cc1n[nH]c(O)c1C(c1cc2c(cc1Br)OCO2)c1c(C)n[nH]c1O` , which call appears in the assay record?
active

What did the test return for `COc1cccc(/C=C/C(=O)c2ccc(NS(=O)(=O)c3ccc(C)cc3)cc2)c1` ?
active

Per the assay record, what outcome was assigned to `CN1CCN(Cc2cc(=O)oc3ccc(Cl)cc23)CC1` ?
inactive

Give the logged outcome of this assay for the following molecule: CC(=O)O[C@@H]1C[C@H]2C(C)(C)C(=O)C=C[C@]2(C)[C@H]2CC[C@@]3(C)[C@H](c4ccoc4)OC(=O)[C@H]4O[C@]43[C@@]21C [GEDUNIN]
active

Please let me know the test result on file for `COC(=O)c1cc(NC(=O)Nc2ccccc2OC)cc(C(=O)OC)c1` .
inactive

Please let me know the test result on file for O=C(O)COc1ccccc1C(Nc1cccnc1)c1cc(Cl)c2cccnc2c1O (stereo unspecified) .
active

Identify the outcome logged in this assay for the molecule shown: `CC(C)c1nnc(NC(=O)c2nc(S(=O)(=O)Cc3ccccc3)ncc2Cl)s1`
active

I would be grateful if you could indicate the recorded call for `CC1(C)c2ssc(=S)c2-c2ccccc2N1C(=O)CSC1=NCCS1` .
active

Please let me know the test result on file for `Nc1ccc2[nH]c(CCCCc3nc4ccccc4[nH]3)nc2c1` .
active

GET /call?item= `O=C(c1cc(F)c(F)cc1Cl)N1CCN(c2ccc([N+](=O)[O-])c3ncccc23)CC1` returns the recorded outcome of this test.
active

Which result was noted for this molecule in the test: `Cc1oc2c(c1C(=O)N1CCOCC1)C(=O)c1ccccc1C2=O`
active
